folding enthalpy by entry:
protocol_description: folding enthalpy; higher = less favourable; fluorescence melt of hairpins on a sequencing array, two-state fit
measurement_conditions: sodium 0.088 M
Output spec: scalar in kcal/mol, unitless text.

GCATACGAAAGTAAGTGC ((((((....)))..))) = -21.4
GATCTGCGCCCAGATC ((((((....)))))) = -29.2
GGTCTCGAAAGAGCTACC ((((((....)))..))) = -13.9
GGTCCGCGAAAGCGCACC (((.(((....))).))) = -20.9
GTTTCAGGAAACTGAAGC (.(((((....))))).) = -22.2
GGTGAGGGAAACCCCACC ((((.((....)).)))) = -39.2
GAGACCGAAAGGTGTCTC ((((((....)))..))) = -24
GTGGTGGGAAACCGCCAC ((((.((....)).)))) = -40.2

Q: Which folding enthalpy is listed for GTCGACGAAAGTCTGAC ((((((....))).))) ?
Result: -21.8

Q: Which folding enthalpy is listed for GATCTGCTTTCAGATC ((((((....)))))) ?
Result: -40.1

Q: Which folding enthalpy is listed for GAATTAGGAAACTAATTC (((((((....))))))) ?
Result: -38.8

Q: Which folding enthalpy is listed for GTCCTGTCGAAAGACGAC (((..(((....)))))) ?
Result: -11.2

----------
protocol_description: folding enthalpy; higher = less favourable; fluorescence melt of hairpins on a sequencing array, two-state fit
measurement_conditions: sodium 0.088 M
folding enthalpy by entry:

Solved cases below.
GAAAAAGAAATTTTTC ((((((....)))))) = -14.6 kcal/mol
GTTTGTGGAAACATGAAC (((..((....))..))) = -21.9 kcal/mol
CGAGCGGAAACGCTGTCG ((((((....)))..))) = -11.2 kcal/mol
GGAGACGAAAGTCGATCC ((((((....)))..))) = -13 kcal/mol
GCGGGTGGAAACGCTCGC (((.(.(....).).))) = -24.6 kcal/mol

Q: Which folding enthalpy is listed for CGCGGAACTTCCGCG ((((((...)))))) ?
Result: -37.8 kcal/mol

Q: Which folding enthalpy is listed for GATCCGTCGACGGATC ((((((....)))))) ?
Result: -48.8 kcal/mol

Q: Which folding enthalpy is listed for GGGTTTACGAAAGTACCC (((..(((....)))))) ?
Result: -24.2 kcal/mol

Q: Which folding enthalpy is listed for GACCACGAAAGTGTTGTC ((((((....)))..))) ?
Result: -18.7 kcal/mol

Q: Which folding enthalpy is listed for GTTTCAGGAAACTGAAAC (((((((....))))))) ?
Result: -45 kcal/mol

----------
folding enthalpy by entry:
protocol_description: folding enthalpy; higher = less favourable; fluorescence melt of hairpins on a sequencing array, two-state fit
measurement_conditions: sodium 0.088 M
Write the figure, then the unit, nothing else.

GATCCGCTGCCGGATC ((((((....)))))) = -36.4 kcal/mol
GTGCATGGAAACATGTGC (..((((....))))..) = -25 kcal/mol
GCCCAGCGAAAGCTGAGC ((.((((....)))).)) = -15.2 kcal/mol
GCACCCACGAAAGTGTGC (((..(((....)))))) = -19 kcal/mol
CGACGCGGAAACGCATCG (((.(((....))).))) = -28 kcal/mol

# context switch: different sequence, same folding enthalpy
Q: Which folding enthalpy is listed for GCGTCAAACGC ((((...)))) ?
Result: -16.7 kcal/mol
